- Tested on: K-562 leukemia
- method: NCI-60 one-dose screen, 48 h
- protocol-conditions: 10 µM unless noted
About 83,000 compounds went through this panel and 20% of them were active in at least one assay; those are over-represented in the sample as a whole. Activity calls are given as the source filed them. How the source made its calls: active means growth percent below 10; inactive means the rest.
Outcomes: t = active, f = inactive

INSERT INTO assay_data (compound_smiles, assigned_class) VALUES
  ('COC(=O)[C@@H]1CC[C@]2(C)[C@H](CC[C@@H]3O[C@@]32C)[C@@]1(C)CC(=O)c1ccoc1', 'f'),
  ('O=c1[nH]c(-c2ccccn2)nc2sc3c(c12)CCCCC3', 'f'),
  ('O=C(O)c1cccc2c1-c1ccccc1C2=O', 'f'),
  ('Nc1cccc(-c2nc3sccn3c2-c2ccnc(NCCCNS(=O)(=O)c3ccc(C(F)(F)F)cc3)n2)c1', 't'),
  ('Cc1ccc2c(c1)O/C(=C\c1cccc(OCC(=O)c3ccccc3)c1)C2=O', 'f'),
  ('Cc1ccc2c(c1)n([O-])c1cc(Cl)ccc1[n+]2=O', 'f'),
  ('CCN(CC)CCCNc1cc(OC)cc2nc3cc(Cl)ccc3nc12', 't'),
  ('COc1cc(C(=O)/C=C/c2c(C)n([O-])c3ccc(C)cc3[n+]2=O)cc(OC)c1OC', 't'),
  ('CC[C@@H](C)OC(=O)c1nn(C(C)=O)c2ccccc12', 'f'),
  ('CSc1nc(NCCO)c(C#N)c(-c2cccc(N)c2)n1', 'f');

----------
- Tested on: SR leukemia
- method: NCI-60 one-dose screen, 48 h
- protocol-conditions: 10 µM unless noted
Compounds without any hit were thinned out: in the full panel of roughly 83,000, 20% have a hit. Active and inactive are the calls of the source. The calls were made as follows: active = growth percent below 10; inactive = the rest.
Outcomes: t for active, f for inactive

INSERT INTO assay_data (compound, assigned_class) VALUES
  ('Cc1ccc2c(c1)O/C(=C\c1cccc(OCC(=O)c3ccccc3)c1)C2=O', 'f'),
  ('Brc1cccc(-c2cc(-c3ccc4c(c3)OCCO4)[nH]n2)c1', 'f'),
  ('O=C(CN1CCN(c2cc3c(cc2F)c(=O)c(C(=O)O)cn3C2CC2)CC1)Nc1cc(=O)[nH]c(=O)[nH]1', 'f'),
  ('COc1ccc2nc3cc(Cl)ccc3c(NCCNCC(O)CO)c2c1 (centres undefined)', 't'),
  ('O=C(COc1cccc(/C=C2/Oc3ccccc3C2=O)c1)Nc1nccs1', 't'),
  ('COc1ccc(-c2nc(Nc3cc(C)[nH]n3)c3ccccc3n2)cc1', 'f'),
  ('C[C@]12C[C@@H](c3ccoc3)OC(=O)[C@@H]1CC[C@]1(C)[C@@H]2CC[C@@H](O)[C@]1(C)O', 'f'),
  ('C/C(=C(/c1ccc(O)cc1)c1ccc(OCCN2CCCC2)cc1)c1ccccc1', 't'),
  ('CCN(CC)CCCC(C)N/C(=C1\C(=O)NC(=O)\C1=C(/NC(C)CCCN(CC)CC)c1cccc(OC)c1)c1cccc(OC)c1 (centres undefined)', 't');

----------
- Test system: CCRF-CEM leukemia
- method: NCI-60 one-dose screen, 48 h
- protocol-conditions: 10 µM unless noted
About 83,000 compounds went through this panel and 20% of them were active in at least one assay; those are over-represented in the sample as a whole. Active and inactive are the calls of the source. The calls were made as follows: active = growth percent below 10; inactive = the rest.
Outcomes: y for active, n for inactive

INSERT INTO assay_data (compound, assigned_class) VALUES
  ('COc1c2ccccc2c(OC)c2[nH]c(=O)ccc12', 'y'),
  ('CC(=O)/C(=C/c1cccc(Cl)c1)C(=O)c1ccccc1', 'n'),
  ('COc1cccc(-c2cn3c(ccc4ccccc43)n2)c1', 'n'),
  ('COc1nc2c(cc1S(=O)(=O)c1ccccc1)CCc1c-2cnn1Cc1ccccc1', 'n'),
  ('C/C=C/C(N)=O', 'n'),
  ('CCN(CC)c1ccc(CNc2cc(C)nc3ccc(OC)cc23)cc1', 'n'),
  ('COc1ccc(/C=N\NC(=O)CN2CCN(c3cc4c(cc3F)c(=O)c(C(=O)N/N=C/c3ccc(OC)cc3)cn4C3CC3)CC2)cc1', 'n'),
  ('COc1ccc2nc3cc(Cl)ccc3c(N3CCN(c4ccnc(N5CCOCC5)n4)CC3)c2c1', 'y'),
  ('O=C(O)c1ccccc1Nc1cccc(S(F)(F)(F)(F)F)c1', 'n'),
  ('CCCCCN(CCCCC)CCC[C@@H](C)[C@H]1CC[C@H]2[C@@H]3[C@H](OCCCN)C[C@@H]4C[C@H](OCCCN)CC[C@]4(C)[C@H]3C[C@H](OCCCN)[C@]12C', 'n'),
  ('COc1cc(/C=C2\CN(C(=O)CCN3CCC(=NO)CC3)C/C(=C\c3cc(OC)c(OC)c(OC)c3)C2=O)cc(OC)c1OC', 'y'),
  ('CC#CC#Cc1cccc(=O)o1', 'n'),
  ('COc1ccc2c(c1)C(=O)/C(=C/c1cccc(OCC(=O)Nc3nc4c(s3)CCCC4)c1)O2', 'y'),
  ('Nc1cc(O)cc2cccnc12', 'n'),
  ('CC(C)(C)n1cc(-c2ccnc(NCCNS(=O)(=O)c3ccccc3)c2)c(-c2cccc(O)c2)n1', 'n'),
  ('NC1=CSC2=N/C(=C\c3ccc(Cl)cc3)C(=O)N12', 'y'),
  ('CSc1[nH]c2ncnc(N)c2c1C#N', 'n'),
  ('CCCCN(CCCC)CCC(C)(O)c1cc2ccccc2c2ccccc12 (stereo unspecified)', 'n'),
  ('COCCOc1ccc(-c2nc3ccc(-c4nc5ccc(N6CCN(C)CC6)cc5[nH]4)cc3[nH]2)cc1', 'y'),
  ('Cc1nn(-c2ccccc2)c2nc(C)n(-c3ccc(Br)cc3)c(=O)c12', 'n'),
  ('O=C(CN1CCOCC1)Nc1ccc(Cn2nnc3c2C(=O)c2nnn(Cc4ccc(NC(=O)CN5CCOCC5)cc4)c2C3=O)cc1', 'y');
